# Test system: Drosophila S2 cl14 SmoIP sensor cells
# experiment.description: normalized SmoIP GFP fluorescence (untreated unstimulated = 0%, untreated Hh-stimulated = 100%); higher = more Smo activation sensor fluorescence
# condition.label: stimulation: Hh conditioned medium (+Hh); compound concentration: 2 uM; 24 h
Where a name gives a salt, the structure may show the parent alone.
Items are presented alongside their recorded normalized SmoIP GFP fluorescence.
# value in %; strip the unit string

Consider the following illustrative entries.
{"molecule": "Cc1ccccc1C(=O)Nc1ccc(C(=O)N2CCCC(N(C)C)c3ccccc32)cc1 (stereo unspecified)", "numeric.readout": 105}
{"molecule": "CCOc1cc(N)c(Cl)cc1C(=O)NCC1CN(Cc2ccc(F)cc2)CCO1 (stereo unspecified) [Mosapride-citrate]", "numeric.readout": 103}
{"molecule": "CN1CCC(CNc2ccc3ncc(-c4cccc(OC(F)(F)F)c4)n3n2)CC1", "numeric.readout": 122}
{"molecule": "O=C(NCCN1CCOCC1)c1ccc(Cl)cc1 [moclobemide]", "numeric.readout": 108}
{"molecule": "Cc1cc(C2CCCCC2)n(O)c(=O)c1", "numeric.readout": 101}
{"molecule": "CNCCC(Oc1ccc(C(F)(F)F)cc1)c1ccccc1 (stereo unspecified) [Fluoxetine-hydrochloride]", "numeric.readout": 111}
{"molecule": "CNC(=O)Nc1ccc(-c2nc(N3CC4CCC(C3)O4)c3cnn(C4CCC5(CC4)OCCO5)c3n2)cc1", "numeric.readout": 41.3}
{"molecule": "O=C(COc1ccc(Cl)cc1)NC1CCC(NC(=O)COc2ccc(Cl)cc2)CC1 (stereo not drawn) [isrib-trans-isomer]", "numeric.readout": 109}
{"molecule": "O=C(O)COCCN1CCN(C(c2ccccc2)c2ccc(Cl)cc2)CC1 (stereo unspecified) [Cetirizine-di-hcl]", "numeric.readout": 90.4}
{"molecule": "Cc1cccc(-c2[nH]c(C(C)(C)C)nc2-c2ccc3c(c2)OCO3)n1", "numeric.readout": 133}

Switching to the query record.
Problem: Bench note: what normalized SmoIP GFP fluorescence did COc1cc(NC(=O)c2ccc(-c3ccc(Cl)cc3)o2)cc(OC)c1 show?
Result: 115

====

# Test system: Drosophila S2 cl14 SmoIP sensor cells
# experiment.description: normalized SmoIP GFP fluorescence (untreated unstimulated = 0%, untreated Hh-stimulated = 100%); higher = more Smo activation sensor fluorescence
# condition.label: stimulation: Hh conditioned medium (+Hh); compound concentration: 2 uM; 24 h
Where a name gives a salt, the structure may show the parent alone.
Listing: normalized SmoIP GFP fluorescence of selected molecules
Could you give me the number in %? Just the number is fine.

{"molecule": "NC(=O)C(c1ccccc1)(c1ccccc1)[C@@H]1CCN(CCc2ccc3c(c2)CCO3)C1 [darifenacin-hydrobromide]", "study.target": "Drosophila S2 cl14 SmoIP sensor cells", "normalized SmoIP GFP fluorescence / %": 116}
{"molecule": "O=C(NOCC(O)CO)c1cc(Br)c(F)c(F)c1Nc1ccc(I)cc1F (stereo not drawn)", "study.target": "Drosophila S2 cl14 SmoIP sensor cells", "normalized SmoIP GFP fluorescence / %": 132}

// moving on: another record for normalized SmoIP GFP fluorescence
Problem: Quick check: normalized SmoIP GFP fluorescence on Drosophila S2 cl14 SmoIP sensor cells, item COc1cc(Nc2c(C#N)cnc3cc(OCCCN4CCN(C)CC4)c(OC)cc23)c(Cl)cc1Cl ?
Result: 143

====

# System: Drosophila S2 cl14 SmoIP sensor cells
# experiment.description: normalized SmoIP GFP fluorescence (untreated unstimulated = 0%, untreated Hh-stimulated = 100%); higher = more Smo activation sensor fluorescence
# condition.label: stimulation: mock conditioned medium (-Hh); compound concentration: 2 uM; 24 h
Property: normalized SmoIP GFP fluorescence; scope: individual compounds
# value in %; strip the unit string

{"compound": "c1ccc(-c2nn3c(c2-c2ccnc4cc(OCCN5CCOCC5)ccc24)CCC3)nc1", "reading.unit": "%", "normalized SmoIP GFP fluorescence": 30.2}
{"compound": "C[C@]12CCC(=O)C=C1[C@@H]1C[C@@H]1[C@H]1[C@@H]3[C@@H]4C[C@@H]4[C@@]4(CCC(=O)O4)[C@@]3(C)CC[C@@H]12 [Drospirenone]", "reading.unit": "%", "normalized SmoIP GFP fluorescence": 1.03}
{"compound": "O=C1c2ccccc2C(=O)c2c1ccc(O)c2O [Alizarin]", "reading.unit": "%", "normalized SmoIP GFP fluorescence": -7.96}
{"compound": "CN1C(=O)C(Cc2c[nH]c3ccccc23)NC1=S (centres undefined) [necrostatin-1]", "reading.unit": "%", "normalized SmoIP GFP fluorescence": -16.1}

API: the following record is the query input.
Problem: Please provide the recorded normalized SmoIP GFP fluorescence for C[C@]1(O)C[C@@H](c2nc(-c3ccc4ccc(-c5ccccc5)nc4c3)c3c(N)nccn32)C1 , tested on Drosophila S2 cl14 SmoIP sensor cells.
Result: -11

====

# System: Drosophila S2 cl14 SmoIP sensor cells
# experiment.description: normalized SmoIP GFP fluorescence (untreated unstimulated = 0%, untreated Hh-stimulated = 100%); higher = more Smo activation sensor fluorescence
# condition.label: stimulation: mock conditioned medium (-Hh); compound concentration: 2 uM; 24 h
measurement.name: normalized SmoIP GFP fluorescence (%)
Give the number; % is assumed, so skip it.

{"compound": "Cc1ccc(S(=O)(=O)c2ccc([N+](=O)[O-])o2)cc1", "reading.unit": "%", "normalized SmoIP GFP fluorescence": 21.3}

Problem: Sample COc1cc2ncnc(Nc3ccc(O)c(Br)c3)c2cc1OC — what was its normalized SmoIP GFP fluorescence?
Result: -2.31

Problem: Same read-out for CN1CCc2nc(C(=O)N[C@@H]3C[C@@H](C(=O)N(C)C)CC[C@@H]3NC(=O)C(=O)Nc3ccc(Cl)cn3)sc2C1 ?
Result: -1.34

Problem: Entry to check: COc1c(C)c(C(=O)c2ccc(N)c(C(=O)O)c2)n2ccccc12
Result: -1.34

Problem: How about Nc1cccc2c1C(=O)N(C1CCC(=O)NC1=O)C2=O (stereo not drawn) [Pomalidomide(CC-4047)] ?
Result: 10.4

Problem: Consider next the compound COc1ccc(C(=O)Nc2sc3c(c2C(N)=O)CCCC3)cc1OC in the same way.
Result: -9.85

Problem: Further, for CCN(CC)C(=O)/C(C#N)=C/c1cc(O)c(O)c([N+](=O)[O-])c1 ?
Result: -3.05

Problem: Consider next the compound CCc1cccc2c3c([nH]c12)C(CC)(CC(=O)O)OCC3 (stereo not drawn) in the same way.
Result: -3.17

Problem: # iterate: COc1ccc(-c2ccc3c(N4CCOC[C@@H]4C)nc(N4CCOC[C@@H]4C)nc3n2)cc1CO
Result: -2.96

Problem: Try this compound too: C[S+]([O-])c1ccc(-c2nc(-c3ccc(F)cc3)c(-c3ccncc3)[nH]2)cc1 (stereo not drawn)
Result: -5.98

Problem: What do you have for CN1CC2c3ccccc3Oc3ccc(Cl)cc3C2C1 (stereo not drawn) ?
Result: 4.58

Problem: Follow-up entry: O=C(NCCCNc1nc(Nc2cccc(NC(=O)N3CCCC3)c2)ncc1I)c1cccs1
Result: 78.4

Problem: Same question for C[C@H](Cn1cnc2c(N)ncnc21)OCP(=O)(O)O please.
Result: -4.47

====

# System: Drosophila S2 cl14 SmoIP sensor cells
# experiment.description: normalized SmoIP GFP fluorescence (untreated unstimulated = 0%, untreated Hh-stimulated = 100%); higher = more Smo activation sensor fluorescence
# condition.label: stimulation: mock conditioned medium (-Hh); compound concentration: 2 uM; 24 h
measurement.name: normalized SmoIP GFP fluorescence (%)
Provide only the numeric value, understood in %.

Consider the following illustrative entries.
{"chem.smiles": "COc1ncc(-c2ccc3nccc(-c4ccnnc4)c3c2)cc1NS(=O)(=O)c1ccc(F)cc1F", "normalized SmoIP GFP fluorescence / %": -10.6}
{"chem.smiles": "OC[C@@H](O)CN1CCN(c2ccccc2)CC1", "normalized SmoIP GFP fluorescence / %": -2.93}

Please look at the following compound next.
Problem: # query: normalized SmoIP GFP fluorescence of entry CNC(=O)CN1CCC(Oc2cc3c(Nc4cccc(Cl)c4F)ncnc3cc2OC)CC1
Result: -3.72

====

# System: Drosophila S2 cl14 SmoIP sensor cells
# experiment.description: normalized SmoIP GFP fluorescence (untreated unstimulated = 0%, untreated Hh-stimulated = 100%); higher = more Smo activation sensor fluorescence
# condition.label: stimulation: mock conditioned medium (-Hh); compound concentration: 2 uM; 24 h
We begin with a simple list: items and their reported normalized SmoIP GFP fluorescence.

{"compound": "Oc1c2ccccc2c2c3c(cccc13)N=N2", "normalized SmoIP GFP fluorescence": "66%"}
{"compound": "O=C1NC(=O)/C(=C/c2cccc(C(F)(F)F)c2)S1", "normalized SmoIP GFP fluorescence": "-9.04%"}
{"compound": "COc1ccc2cc(CCC(C)=O)ccc2c1", "normalized SmoIP GFP fluorescence": "-2.2%"}

Problem: Requested read-out normalized SmoIP GFP fluorescence, target or system Drosophila S2 cl14 SmoIP sensor cells, entry C/C=C1\[C@H]2C=C(C)C[C@]1(N)c1ccc(=O)[nH]c1C2 [(-)-Huperzine-A];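 also: flow cytometry read-out as median GFP intensity of gated cells, compounds added 30 min before Hh-conditioned or mock medium, mock-treated cells serving as unstimulated baseline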
Result: -7.42%
